Source: patent US20220370416A1

target: HiBit-KRAS^G12C (Homo sapiens, UniProt P01116, G12C); test: HiBit degradation assay in SW1573 HiBit-KRas^G12C cells; assay type: cell-based; set-up: expressed in transfected cells; host or cells: SW1573 (clone E6), modified pcDNA3.1 vector, TK promoter; conditions: SW1573, read-out: KRas^G12C-HiBit (SW1573; 0.1% DMSO) Dmax**, SW1573 HiBit-KRas^G12C, 0.1% DMSO, 24 hours
Sequence (P01116 1-186 isoform P01116-2 G12C limits assumed): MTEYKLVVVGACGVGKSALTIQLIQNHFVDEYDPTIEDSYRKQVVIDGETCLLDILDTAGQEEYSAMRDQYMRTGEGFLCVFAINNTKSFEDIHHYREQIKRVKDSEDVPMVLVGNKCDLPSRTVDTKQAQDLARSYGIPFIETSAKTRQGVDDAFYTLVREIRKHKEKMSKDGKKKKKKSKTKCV
attribute-measured: Dmax

# example entries with known answers
compound: C=CC(=O)N1CCN(c2nc(O[C@H](C)CN3CCN(CC4CN(CC(=O)N[C@H](C(=O)N5C[C@H](O)C[C@H]5C(=O)N[C@@H](C)c5ccc(-c6scnc6C)cc5)C(C)(C)C)C4)CC3)nc3c(F)c(-c4cc(O)cc5ccccc45)c(Cl)cc23)CC1
Dmax: < 35%
--
compound: C=CC(=O)N1CCN(c2nc(O[C@H](C)CN3CCN(CCCOC4CN(CC(=O)N[C@H](C(=O)N5C[C@H](O)C[C@H]5C(=O)N[C@@H](C)c5ccc(-c6scnc6C)cc5)C(C)(C)C)C4)CC3)nc3c(F)c(-c4cc(O)cc5ccccc45)c(Cl)cc23)CC1
Dmax: < 35%

Please examine the following record next.
Give the reported value of Dmax for this record: C=CC(=O)N1CCN(c2nc(O[C@H](C)CN3CCC(OCCOC4CN(CC(=O)N[C@H](C(=O)N5C[C@H](O)C[C@H]5C(=O)N[C@@H](C)c5ccc(-c6scnc6C)cc5)C(C)(C)C)C4)CC3)nc3c(F)c(-c4cc(O)cc5ccccc45)c(Cl)cc23)CC1
< 35%
